Tested on: T. cruzi intracellular amastigotes in H9c2 cells
Assay: Rate-of-Kill (RoK) high-content imaging assay, amastigotes per cell (AM/CELL) and curve descriptors
Format: cell-based, Trypanosoma cruzi
Parameters: key: % reduction in parasite burden (cidal response)
Settings: 72h, figure 5
ME_72h values for the molecules below.

Completed entries (count: 3):
> print(dat)
                                   molecule  measuredvalue
1  CCN(C)Cc1ccc(N2CCC(NS(=O)(=O)c3ccc4c(c3)CCO4)CC2)nc1 [TCMDC-143244]        55.3707
2  CC1CS(=O)(=O)CCN1/N=C/c1ccc([N+](=O)[O-])o1 (stereo not shown) [Nifurtimox, nifurtimox, reference compound]        96.6694
3  O=C(NCCc1cccnc1)c1ccc(-c2ccccc2F)o1 [TCMDC-143190]        47.7023

Summary line: COc1cc(C(C)C)c(S(C)(=O)=O)cc1C(=O)N1CCN(c2ccccc2Cl)CC1 [TCMDC-143097] , T. cruzi intracellular amastigotes in H9c2 cells, reported ME_72h = 22.9753
